Values from ChEMBL document CHEMBL1961873

biological target: Vascular endothelial growth factor receptor 3 (Homo sapiens); details: at 1 µM;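 further: mean FLT4 inhibition, averaged across replicates, from the GSK PKIS kinase inhibitor screen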
Recorded inhibition for the following molecules
Value expressed in %; do not type the unit.

Quick one: inhibition of `CN(C)CCCNc1nccc(-c2c(-c3ccc(F)cc3)nn3cc(C(F)(F)F)ccc23)n1` ?
-6.61

Which inhibition value is on record for `CCc1ccc(Oc2nccc(-c3c(-c4ccc(F)cc4)ncn3C3CCNCC3)n2)cc1` ?
4.74

So what's the measured inhibition for this one? `Fc1ccc(-c2ncn(CCCN3CCOCC3)c2-c2ccncc2)cc1`
0.05

Quick check: inhibition of `C[C@@H](Oc1cc(-n2cnc3ccc(OC4CCN(C)CC4)cc32)sc1C(N)=O)c1ccccc1Cl` ?
13.8

Which inhibition value belongs to `C/C(Nc1ccc(S(N)(=O)=O)cc1)=C1/C(=O)Nc2ccccc21` ?
32.9

Recorded inhibition of `CN(C)c1ccc2c(c1)/C(=C/Nc1ccc(S(N)(=O)=O)cc1)C(=O)N2` , please.
55

Value lookup for inhibition; key = `Cc1ccc(C(=O)NC2CCC2)cc1-c1ccc(C(=O)NCC2CC2)cc1`
1

Recorded inhibition of `CS(=O)(=O)CCNCc1cc(-c2cc3c(Nc4ccc(OCc5cccc(F)c5)c(Cl)c4)ncnc3s2)cs1` , please.
-1.31

Which inhibition value is on record for `CNC(=O)c1cncc(/C=C/c2c(C)cccc2C)c1` ?
-8.92

Query: inhibition; subject: `Cc1ccc(C(=O)NC(C)C)cc1-c1ccc(C(=O)NCC2CC2)cc1`
2.58

----------
biological target: Phosphatidylinositol 4,5-bisphosphate 3-kinase catalytic subunit delta isoform (Homo sapiens); conditions: at 1 µM;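 further: reported values are mean percent inhibition of PI3K-delta activity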
// label = met if inhibition is not less than 6%, otherwise not met

// known answers, use as guide
SMILES_CODE: COc1cc(Nc2ncc(-c3ccccc3)o2)cc(OC)c1OC
LABEL: met
--
SMILES_CODE: c1ccc(-c2n[nH]cc2-c2ccnc(-c3ccc(OCCN4CCOCC4)cc3)c2)nc1
LABEL: not met
--
SMILES_CODE: O=C(Nc1n[nH]c2nc(-c3ccco3)ccc12)C1CC1
LABEL: not met
--
SMILES_CODE: O=C1Nc2ccccc2/C1=C/Nc1ccc(-n2cncn2)cc1
LABEL: not met
--
SMILES_CODE: C[C@@H](Oc1cc(-n2cnc3ccc(OCC4CCN(C)CC4)cc32)sc1C(N)=O)c1ccccc1Cl
LABEL: met

Turning now to a further record.
Please indicate if the recorded inhibition for `COc1cc2ncn(-c3cc(OCCc4ccccc4)c(C(N)=O)s3)c2cc1OC` meets or exceeds 6%.
not met

----------
molecular target: Casein kinase II subunit alpha (Homo sapiens); settings: at 1 µM;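 further: reported value is the mean CK2 inhibition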
MEASURE_NAME: inhibition (%)
Kindly answer with a numeric value in %, unit omitted.

SMILES_CODE: O=C(Nc1n[nH]c2nc(-c3ccc(O)cc3)c(Br)cc12)C1CC1
MEASURE_NAME: inhibition
OBS_VALUE: 5.84

# lookup: inhibition of `COc1cc2ncn(-c3cc(OCc4ccccc4C(F)(F)F)c(C(C)=O)s3)c2cc1OC`
2.45

Report inhibition for `CCS(=O)(=O)c1ccc(OC)c(Nc2ncc(-c3cccc(-c4ccccc4F)c3)o2)c1` please.
4.95

// query inhibition value for entry `NC(=O)c1ccc(Oc2nccc(-c3c(-c4ccc(F)cc4)ncn3C3CCNCC3)n2)cc1`
2.91

I would be grateful if you could share the reported inhibition for `Fc1ccc(-c2ncn(CCCN3CCOCC3)c2-c2ccncc2)cc1` .
-6

State the recorded inhibition for this entry: `CN(C)c1ccc2c(c1)/C(=C/Nc1ccc(S(N)(=O)=O)cc1)C(=O)N2`
18

Would you mind telling me what inhibition value was observed for `NC(=O)c1cc(-c2ccc(F)cc2)cc(-c2ccncc2)c1N` ?
8.62

# inhibition lookup, item `Fc1ccc(-c2ncn(C3CCNCC3)c2-c2ccnc(Oc3ccc4c(c3)OCO4)n2)cc1`
3.74

----------
target: Serine/threonine-protein kinase DCLK2 (Homo sapiens); details: at 0.1 µM;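 further: reported value is the mean percent inhibition of DCAMKL2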
MEASURE_NAME: inhibition (%)
Kindly provide the numeric value in % only, without the unit symbol.

Worked examples follow.
MOLECULE: NS(=O)(=O)c1ccc(N/N=C2\C(=O)Nc3ccc(C(=O)NCCCn4ccnc4)cc32)cc1
inhibition (%): 1.59
--
MOLECULE: COC(=O)Nc1nc2ccc(Sc3ccc(NC(=O)Nc4cc(C(F)(F)F)ccc4F)cc3)cc2[nH]1
inhibition (%): -1.02
--
MOLECULE: CCN(CC)Cc1ccc(Nc2nccc(-c3cnn4ncccc34)n2)cc1
inhibition (%): -4.15
--
MOLECULE: COc1ccc2cc(-c3c(-c4ccncc4)nc(-c4ccc(S(C)(=O)=O)cc4C)n3C)ccc2c1
inhibition (%): 0.26
--
MOLECULE: COc1cc2ncn(-c3cc(OCc4cccs4)c(C(N)=O)s3)c2cc1OC
inhibition (%): -9.99

Now turn to the next molecule.
Could you share which inhibition value was measured for `COc1ccc(C2=C(N3CCc4ccccc43)C(=O)NC2=O)cc1` ?
2.43

----------
target: Rho-associated protein kinase 1 (Homo sapiens); conditions: at 0.1 µM
Below is a list of entries, each paired with its recorded inhibition value.
The figure you give is taken to be in %; do not add the unit.

Here are 5 compounds together with their reported answers.
SMILES_CODE: COc1cc2ncn(-c3cc(OCc4cccs4)c(C(N)=O)s3)c2cc1OC
inhibition, %: 2.39
//
SMILES_CODE: CN(C)CCOc1ccc(-c2cc(-c3ccc4c(c3)CCC4=NO)c(-c3ccncc3)o2)cc1
inhibition, %: -1.57
//
SMILES_CODE: COc1ccc2ncn(-c3cc(O[C@H](C)c4ccccc4Cl)c(C(N)=O)s3)c2c1
inhibition, %: 1.76
//
SMILES_CODE: O=C1Nc2ccc(I)cc2C1=Cc1cc(Br)c(O)c(Br)c1
inhibition, %: 2.76
//
SMILES_CODE: Fc1ccc(-c2nc3n(c2-c2ccncc2)CCS3)cc1
inhibition, %: 1.14

Tell me reported inhibition for `CCS(=O)(=O)c1ccc(OC)c(Nc2ncc(-c3ccccc3Cl)o2)c1` , tested with Rho-associated protein kinase 1 (Homo sapiens).
-0.11

What reported inhibition corresponds to `COc1cc(C)c(N(C)C(=O)CN(C)C)cc1Nc1nc(Nc2cccc(F)c2C(N)=O)c2cc[nH]c2n1` on Rho-associated protein kinase 1 (Homo sapiens)?
0.77

Look up inhibition with Rho-associated protein kinase 1 (Homo sapiens) for this compound: `COc1cc2ncn(-c3cc(OCc4ccccc4C(F)(F)F)c(C(C)=O)s3)c2cc1OC`
0.94

What inhibition appears in the records for this compound with Rho-associated protein kinase 1 (Homo sapiens)? `CCN(CC)Cc1ccc(Nc2nccc(-c3cnn4ncccc34)n2)cc1`
2.36

// lookup inhibition | system=Rho-associated protein kinase 1 (Homo sapiens) | key= `Cc1nnc(-c2ccc(C)c(-c3ccc(C(=O)NCc4ccc(Cl)cc4)cc3)c2)o1`;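 further: values are mean percent inhibition of ROCK1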
1.51

What measured inhibition is associated with `CCc1cccc(CC)c1/C=C/c1cncc(C(=O)NC)c1` on Rho-associated protein kinase 1 (Homo sapiens)?
0.87

----------
molecular target: CDK3/Cyclin E (Homo sapiens) (UniProt P24864+Q00526); settings: at 0.1 µM;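 further: reported percentages are mean inhibition values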
Sequence (P24864 whole entry, looked up): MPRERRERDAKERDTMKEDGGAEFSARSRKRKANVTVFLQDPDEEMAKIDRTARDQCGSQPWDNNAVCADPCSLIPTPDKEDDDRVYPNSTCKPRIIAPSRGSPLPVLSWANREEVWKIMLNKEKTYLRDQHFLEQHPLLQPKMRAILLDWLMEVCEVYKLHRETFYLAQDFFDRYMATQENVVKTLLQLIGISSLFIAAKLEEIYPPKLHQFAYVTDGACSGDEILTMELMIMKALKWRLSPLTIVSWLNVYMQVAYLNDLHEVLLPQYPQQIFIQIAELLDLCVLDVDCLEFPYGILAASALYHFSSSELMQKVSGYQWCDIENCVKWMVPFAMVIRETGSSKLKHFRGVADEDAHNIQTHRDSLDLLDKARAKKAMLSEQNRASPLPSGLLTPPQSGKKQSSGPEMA
Sequence (Q00526 whole entry, looked up): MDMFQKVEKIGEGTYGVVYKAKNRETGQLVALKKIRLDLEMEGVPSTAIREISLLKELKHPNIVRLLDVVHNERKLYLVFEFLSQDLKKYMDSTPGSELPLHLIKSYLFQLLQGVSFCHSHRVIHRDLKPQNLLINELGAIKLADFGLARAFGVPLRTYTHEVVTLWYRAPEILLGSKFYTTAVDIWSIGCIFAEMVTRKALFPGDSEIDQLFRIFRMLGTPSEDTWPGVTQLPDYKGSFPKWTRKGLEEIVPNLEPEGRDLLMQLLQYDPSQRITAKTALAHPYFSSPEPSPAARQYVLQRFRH
# reported inhibition; entries follow
The response must be a number in % with no trailing unit.

Field: example entries. Status: answers known.
COMPOUND: C[C@@H](Oc1cc(-n2cnc3ccc(OC4CCN(C)CC4)cc32)sc1C(N)=O)c1ccccc1Cl
inhibition / %: -3.54
--
COMPOUND: Fc1ccc(-c2nc3n(c2-c2ccncc2)CCS3)cc1
inhibition / %: 4.27
--
COMPOUND: NS(=O)(=O)c1ccc(N/N=C2\C(=O)Nc3ccc(C(=O)NCCCn4ccnc4)cc32)cc1
inhibition / %: 27.8
--
COMPOUND: COC(=O)Nc1nc2ccc(Sc3ccc(NC(=O)Nc4cc(C(F)(F)F)ccc4F)cc3)cc2[nH]1
inhibition / %: -0.31
--
COMPOUND: COc1ccc2ncn(-c3cc(O[C@H](C)c4ccccc4Cl)c(C(N)=O)s3)c2c1
inhibition / %: -2.44

Given the compound `COc1ccc2cc(-c3c(-c4ccncc4)nc(-c4ccc(S(C)(=O)=O)cc4C)n3C)ccc2c1` , what is its reported inhibition?
5.76

Consider the compound Nc1nccc(-c2c(-c3ccc(F)cc3)ncn2C2CCC(O)CC2)n1 (stereo not given) and give its measured inhibition.
-1

Please report the recorded inhibition for `Fc1ccc(-c2ncn(CCCN3CCOCC3)c2-c2ccncc2)cc1` .
2.27

I am curious: what inhibition value has been reported for `NC(=O)c1cc(-c2ccncc2)cc(-c2ccccc2)c1N` ?
4.6

Recorded inhibition of `O=C(Nc1n[nH]c2nc(-c3ccco3)ccc12)C1CC1` , please.
0.19

----------
We begin with a simple list: items and their reported inhibition.
test system: Leucine-rich repeat serine/threonine-protein kinase 2 (Homo sapiens), Q5S007 [G2019S]; conditions: at 0.1 µM
Sequence (Q5S007 whole entry G2019S): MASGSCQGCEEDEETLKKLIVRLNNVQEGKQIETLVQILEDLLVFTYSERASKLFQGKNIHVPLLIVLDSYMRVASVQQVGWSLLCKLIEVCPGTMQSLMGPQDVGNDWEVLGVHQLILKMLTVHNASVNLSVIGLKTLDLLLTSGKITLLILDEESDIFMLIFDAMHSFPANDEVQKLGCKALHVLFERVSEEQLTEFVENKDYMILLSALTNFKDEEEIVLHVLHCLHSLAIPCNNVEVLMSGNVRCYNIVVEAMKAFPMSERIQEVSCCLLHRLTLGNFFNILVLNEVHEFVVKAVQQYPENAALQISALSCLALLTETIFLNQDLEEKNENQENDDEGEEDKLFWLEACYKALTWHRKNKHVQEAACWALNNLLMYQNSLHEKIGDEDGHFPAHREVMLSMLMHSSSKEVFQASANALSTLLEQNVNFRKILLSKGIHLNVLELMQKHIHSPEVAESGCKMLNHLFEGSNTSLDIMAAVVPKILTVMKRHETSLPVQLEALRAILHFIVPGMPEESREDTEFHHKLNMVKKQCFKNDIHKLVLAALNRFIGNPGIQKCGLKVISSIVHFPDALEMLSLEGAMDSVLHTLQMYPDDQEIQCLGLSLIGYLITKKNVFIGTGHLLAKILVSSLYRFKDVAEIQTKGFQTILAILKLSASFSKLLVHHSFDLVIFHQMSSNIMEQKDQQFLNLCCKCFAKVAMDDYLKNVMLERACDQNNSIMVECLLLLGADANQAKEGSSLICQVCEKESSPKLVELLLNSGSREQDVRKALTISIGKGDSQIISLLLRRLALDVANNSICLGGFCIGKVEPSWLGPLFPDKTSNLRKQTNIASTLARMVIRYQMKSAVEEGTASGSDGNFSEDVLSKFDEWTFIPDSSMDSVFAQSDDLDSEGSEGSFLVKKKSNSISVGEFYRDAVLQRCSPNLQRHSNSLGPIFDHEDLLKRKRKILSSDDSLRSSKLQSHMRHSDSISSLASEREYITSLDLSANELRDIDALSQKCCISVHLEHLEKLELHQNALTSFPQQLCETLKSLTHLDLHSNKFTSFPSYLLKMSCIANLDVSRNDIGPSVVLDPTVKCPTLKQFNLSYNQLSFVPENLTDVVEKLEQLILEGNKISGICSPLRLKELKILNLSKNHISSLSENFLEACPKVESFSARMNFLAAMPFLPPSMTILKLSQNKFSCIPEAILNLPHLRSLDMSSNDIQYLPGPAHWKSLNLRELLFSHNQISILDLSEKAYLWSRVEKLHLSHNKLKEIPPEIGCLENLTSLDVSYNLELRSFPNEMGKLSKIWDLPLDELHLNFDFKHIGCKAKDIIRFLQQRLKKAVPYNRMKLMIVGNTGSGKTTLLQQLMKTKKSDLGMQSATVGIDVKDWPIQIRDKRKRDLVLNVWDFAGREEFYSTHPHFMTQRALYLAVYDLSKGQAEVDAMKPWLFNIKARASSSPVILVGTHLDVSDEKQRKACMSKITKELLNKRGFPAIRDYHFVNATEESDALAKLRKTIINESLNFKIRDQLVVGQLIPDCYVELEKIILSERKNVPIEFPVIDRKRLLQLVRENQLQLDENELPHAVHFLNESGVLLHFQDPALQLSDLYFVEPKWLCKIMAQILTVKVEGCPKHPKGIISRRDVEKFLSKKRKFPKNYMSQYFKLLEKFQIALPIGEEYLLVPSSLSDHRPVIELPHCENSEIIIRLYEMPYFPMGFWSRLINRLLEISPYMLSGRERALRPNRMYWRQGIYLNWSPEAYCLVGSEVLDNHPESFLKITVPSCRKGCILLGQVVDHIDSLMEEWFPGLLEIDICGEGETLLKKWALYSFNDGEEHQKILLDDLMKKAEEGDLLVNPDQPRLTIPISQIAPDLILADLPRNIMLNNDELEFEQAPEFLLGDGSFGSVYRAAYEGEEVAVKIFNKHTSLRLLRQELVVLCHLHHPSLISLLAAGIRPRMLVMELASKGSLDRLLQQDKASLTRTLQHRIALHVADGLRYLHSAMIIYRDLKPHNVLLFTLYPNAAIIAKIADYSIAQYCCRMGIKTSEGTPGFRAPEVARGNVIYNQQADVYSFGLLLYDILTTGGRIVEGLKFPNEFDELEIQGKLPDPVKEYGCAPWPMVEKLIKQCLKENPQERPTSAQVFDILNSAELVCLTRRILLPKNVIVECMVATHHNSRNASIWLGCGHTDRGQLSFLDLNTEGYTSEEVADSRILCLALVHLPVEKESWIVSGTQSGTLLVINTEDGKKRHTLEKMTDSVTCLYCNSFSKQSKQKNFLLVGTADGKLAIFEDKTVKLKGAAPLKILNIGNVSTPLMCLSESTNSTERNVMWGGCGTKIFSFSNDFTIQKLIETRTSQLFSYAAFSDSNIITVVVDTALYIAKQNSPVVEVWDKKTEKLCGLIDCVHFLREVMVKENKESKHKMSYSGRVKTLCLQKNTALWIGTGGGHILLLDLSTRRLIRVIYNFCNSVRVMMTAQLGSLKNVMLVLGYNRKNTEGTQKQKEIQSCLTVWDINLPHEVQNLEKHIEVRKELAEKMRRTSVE
Value expressed in %; do not type the unit.

Examples with answers:
COMPOUND: COc1ccc2cc(-c3c(-c4ccncc4)nc(-c4ccc([S+](C)[O-])cc4C)n3C)ccc2c1 (stereo not given)
UNIT_OF_MEASUREMENT: %
inhibition: 0.88
--
COMPOUND: COc1ccc(-c2ccc3c(NC(=O)C4CC4)n[nH]c3n2)cc1
UNIT_OF_MEASUREMENT: %
inhibition: 2.17
--
COMPOUND: O=C1Nc2ccc(I)cc2C1=Cc1cc(Br)c(O)c(Br)c1
UNIT_OF_MEASUREMENT: %
inhibition: 37.4
--
COMPOUND: Clc1ccc(CNc2nccc(-c3cnn4ncccc34)n2)cc1
UNIT_OF_MEASUREMENT: %
inhibition: 1.24

We next turn to a different compound, shown below.
Would you mind telling me what inhibition value was observed for `O=C(NCC1CC1)c1ccc(-c2cccc(C(=O)NC3CC3)c2)cc1` ?
1.46
